Where do these numbers come from? They come from patent EP4667483A1.

Molecular target: T1, human transferrin receptor (hTfR) (human, UniProt P02786 89-760)
T1 construct: Recombinant hTfR; at pH 7.4 captured on the chip by an anti-His tag antibody, at pH 6.0 immobilized on an NTA chip, so it carries a His tag; also called human TfR; TfR1
T1 sequence (P02786 89-760 limits assumed): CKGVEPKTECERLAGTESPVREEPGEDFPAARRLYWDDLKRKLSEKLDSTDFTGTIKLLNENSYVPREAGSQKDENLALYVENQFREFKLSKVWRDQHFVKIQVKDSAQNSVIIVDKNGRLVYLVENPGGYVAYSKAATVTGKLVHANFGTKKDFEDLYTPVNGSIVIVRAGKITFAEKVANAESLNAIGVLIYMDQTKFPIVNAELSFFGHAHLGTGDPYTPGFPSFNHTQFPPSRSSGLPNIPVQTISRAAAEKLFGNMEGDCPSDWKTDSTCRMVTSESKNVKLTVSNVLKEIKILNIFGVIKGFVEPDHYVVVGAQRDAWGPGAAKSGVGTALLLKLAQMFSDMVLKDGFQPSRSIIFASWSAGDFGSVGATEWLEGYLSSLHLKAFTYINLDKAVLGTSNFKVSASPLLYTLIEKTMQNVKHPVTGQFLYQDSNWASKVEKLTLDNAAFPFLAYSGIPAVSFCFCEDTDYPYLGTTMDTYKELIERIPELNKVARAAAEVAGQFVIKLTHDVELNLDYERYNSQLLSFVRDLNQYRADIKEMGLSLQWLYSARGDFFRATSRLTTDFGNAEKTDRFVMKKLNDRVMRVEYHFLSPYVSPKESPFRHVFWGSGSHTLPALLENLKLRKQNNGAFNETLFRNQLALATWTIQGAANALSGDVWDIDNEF
Test: SPR, KD at pH 6.0 over KD at pH 7.4
Numbered stars: 1 amine (or outer) side, 2 acyl side, 3 side chain; on linkers, the order of the positions; unused ones are H or OH. Bridge positions count the residues as written; N and C are the ends. Square brackets hold non-standard residues; d marks the D form. Primed or numbered codes have the meaning given here. F4aao = 4-(carboxymethoxy)-L-phenylalanine, O=C([C@H](Cc1ccc(OCC(=O)[*:3])cc1)N[*:1])[*:2]; NMePhe(4-COOH) = CN[C@@H](Cc1ccc(C(=O)O)cc1)C(=O)O; Tyr(Me) = COc1ccc(C[C@H](N[*:1])C(=O)[*:2])cc1; NMePhe(3-Cl) = CN[C@@H](Cc1cccc(Cl)c1)C(=O)O; NMeW = CN[C@@H](Cc1c[nH]c2ccccc12)C(=O)O; NMeY = CN[C@@H](Cc1ccc(O)cc1)C(=O)O; PEG4c(3) = PEG4 linker acid; PEG4c″ = not defined here
# Fulfilled = dependency KD pH6.0/7.4 below 4 (exclusive); Not fulfilled = dependency KD pH6.0/7.4 at/above 4

# strict comparison: is reported dependency KD pH6.0/7.4 < 4? input = {CH2CO}-AV[NMePhe(3-Cl)]V[NMeW]NY[F4aao]IIKRF[NMePhe(4-COOH)](PEG4c(3))C-{PEG4c(3)-NH2} (thioether N-15) [894_0647]
Not fulfilled

Does this binder meet the criterion dependency KD pH6.0/7.4 < 4? AVXVXNYXIIQRFXC (as printed: A-V-MeF3C-V-MeW-N-Y-F4OMe-I-I-Q-R-F-MeY-C; linker PEG4c-NH2; cyclic (ClAc-Ala1 thioether to Cys15)) [894_0637]
Not fulfilled

Find out if reported dependency KD pH6.0/7.4 for {CH2CO}-AV[NMePhe(3-Cl)]V[NMeW]NR[Tyr(Me)]IIQRF[NMeY]C-{PEG4c(3)-NH2} (thioether N-15) [894_0642] is less than 4
Fulfilled

Is the reported dependency KD pH6.0/7.4 for {CH2CO}-AV[NMePhe(3-Cl)]V[NMeW]NR[Tyr(Me)]IIKRF[NMeY]C-{PEG4c″-NH2} (thioether N-15; reading uncertain) [894_0641] strictly below 4?
Fulfilled

Please determine if {CH2CO}-AV[NMePhe(3-Cl)]V[NMeW]NY[F4aao]IIKRF[NMeY]C-{PEG4c(3)-NH2} (thioether N-15) [894_0644] is below 4 in terms of dependency KD pH6.0/7.4.
Fulfilled

Answer whether the binder AVXVXNYXIIKRFXC (as printed: A-V-MeF3C-V-MeW-N-Y-F4OMe-I-I-K-R-F-MeY-C; linker PEG4c-NH2; cyclic (ClAc-Ala1 thioether to Cys15)) [894_0636] has dependency KD pH6.0/7.4 strictly less than 4
Fulfilled
